Hey, just so you know, these numbers are from PubChem BioAssay AID463229.

# Test system: INS-1E rat beta cells, no cytokines, CellTiter-Glo ATP, 48 h
# protocol details: cytokine-free beta-cell viability effect – INS-1E rat cells, ATP luminescence, cherry pick, counter-screen for beta-cell apoptosis protection project, dose response (AID 463229)
Active and inactive are the calls of the source.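 How the source made its calls: active means compounds raising the signal whose fitted half-maximal concentration is at or below their top tested dose (cut at about 25 µM in these data); inconclusive means flat fit at 30 to 70% activity, or a poor fit; inactive means the rest.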
Outcome codes: active, inactive

{"compound": "CN(Cc1c(F)cccc1Cl)C(=O)c1cc2ccccc2o1", "answer label": "inactive"}
{"compound": "COc1ccc(CC(=O)Nc2ccncc2Cl)cc1", "answer label": "active"}
{"compound": "O=C(Nc1ccc2nc3n(c(=O)c2c1)CCCCC3)c1c(F)ccc([N+](=O)[O-])c1F", "answer label": "active"}
{"compound": "CC[C@]1(c2ccccc2OC)ON(c2ccccc2C(F)(F)F)C1=O", "answer label": "active"}
{"compound": "Cc1ccc(NC(=O)Cc2nn(C)c(=O)c3ccccc23)cc1F", "answer label": "active"}
{"compound": "CCOc1ccc2nc(NC(=O)c3ccccn3)sc2c1", "answer label": "active"}
{"compound": "O=C(N/N=C/c1ccc(O)c2ncccc12)c1cccc(Br)c1", "answer label": "active"}
{"compound": "CCCCCCSc1cc(-c2nc3ccc(C)cn3c2NCCCC)ccc1OC", "answer label": "active"}
{"compound": "COc1ccc(C(NC(=O)C(C)C)c2ccc3cccnc3c2O)cc1 (stereo not given)", "answer label": "active"}
{"compound": "Cn1nnnc1Sc1ncnc2scc(-c3cc4ccccc4o3)c12", "answer label": "active"}

----------
# Test system: INS-1E rat beta cells, no cytokines, CellTiter-Glo ATP, 48 h
# protocol details: cytokine-free beta-cell viability effect – INS-1E rat cells, ATP luminescence, cherry pick, counter-screen for beta-cell apoptosis protection project, dose response (AID 463229)
measurement name: AC50

{"compound": "CC[C@H](C)[C@@H](C(=O)NCCCCCCCCCCC(=O)N1CCN(C(=O)OC(C)(C)C)CC1)n1cc(CCCCCNC(=O)OC(C)(C)C)nn1", "observed value": "5.92 µM"}
{"compound": "O=C(NCc1cccnc1)/C(=C/c1ccc(-c2cccc(Cl)c2)o1)S(=O)(=O)c1ccccc1", "observed value": "4.93 µM"}
{"compound": "O=C(Cc1ccccc1)N/N=C/c1ccc([N+](=O)[O-])s1", "observed value": "7.26 µM"}
{"compound": "Cc1cccc(Oc2cc(NC(=O)c3ccccc3)cc([N+](=O)[O-])c2)c1", "observed value": "7.84 µM"}
{"compound": "Cc1nc2ccccc2n1-c1nc(-c2ccco2)cc(C(F)(F)F)n1", "observed value": "1.86 µM"}
{"compound": "Cc1ccccc1-[n+]1c(-c2ccccc2)cc(-c2ccccc2)cc1-c1ccccc1", "observed value": "2.2 µM"}
{"compound": "O=C(Nc1nc(-c2ccccc2)cs1)c1ccccc1NS(=O)(=O)c1ccc(F)cc1", "observed value": "4.56 µM"}
{"compound": "COc1ccc(-n2c(-c3ccc(Br)cc3)c[n+]3c2CCc2ccccc2-3)cc1", "observed value": "1.86 µM"}
{"compound": "O=C(N/N=C/c1cccc(F)c1)c1c(O)c2ccccc2[nH]c1=O", "observed value": "4.35 µM"}
{"compound": "Cc1ccccc1N=Nc1ccc(O)c2ncccc12", "observed value": "4.41 µM"}
{"compound": "Cc1ccc(NS(=O)(=O)c2cc([N+](=O)[O-])ccc2NNC(=S)Nc2cc(C)ccc2C)c(C)c1", "observed value": "4.65 µM"}
{"compound": "O=C(Nc1ccc(Cl)cc1)Nc1ccc(N2CCCC2)c(S(=O)(=O)Nc2ccccc2Cl)c1", "observed value": "7.12 µM"}
{"compound": "COc1ccccc1C(NC(C)=O)c1cc(Cl)c2cccnc2c1O (stereo not drawn)", "observed value": "7.24 µM"}
{"compound": "O=C(NNC(=S)Nc1ccc(Cl)c(Cl)c1)c1ccccn1", "observed value": "4.35 µM"}
{"compound": "O=[N+]([O-])c1ccc(O)c(/C=N/NC(=S)Nc2ccc(Cl)cc2Cl)c1", "observed value": "17.9 µM"}
{"compound": "CCC(=O)NC(c1ccc(OC)cc1)c1cc(Cl)c2cccnc2c1O (stereo not drawn)", "observed value": "6.63 µM"}
{"compound": "CN(C)c1cc[n+](Cc2c(Cl)cccc2Cl)cc1", "observed value": "6.3 µM"}
{"compound": "Cc1cc(C)c(S(=O)(=O)/N=C2\\C=C(Nc3ccc(C(=O)O)cc3)C(=O)c3ccccc32)c(C)c1", "observed value": "5.39 µM"}
{"compound": "Oc1c(C(c2ccccc2Cl)N2CCCC2)ccc2cccnc12 (stereo not drawn)", "observed value": "7.11 µM"}
{"compound": "O=C(CSC1=NCCS1)Nc1ccnc2ccccc12", "observed value": "12.5 µM"}
{"compound": "Cc1cc2c(NCCc3ccccc3)ncnc2s1", "observed value": "2.95 µM"}
{"compound": "N#C/C(=C/c1ccc(N2CCCCCC2)o1)c1ccc(Cl)cc1", "observed value": "24.3 µM"}
{"compound": "COc1ccc(OC)c2[nH]c(C(=O)N/N=C/c3ccccc3O)cc12", "observed value": "7.58 µM"}
{"compound": "C=CCCc1ccc(C#N)c(SCc2c(C(=O)OCC)c3cc(OC(C)=O)c(Br)cc3n2C)n1", "observed value": "1.07 µM"}
{"compound": "CCCC12C(=O)C(C)(C(c3ccccc3)=C1c1ccccc1)C1C(=O)N(c3ccc(C)cc3)C(=O)C12 (stereo not drawn)", "observed value": "4.4 µM"}
{"compound": "Cn1nc(C(C)(C)C)cc1C(=O)NCc1ccc(N2CCCC2=O)cc1", "observed value": "5.65 µM"}
{"compound": "Cc1nn(Cc2c(Cl)cccc2Cl)c(C)c1NC(=O)c1cn(-c2ccccc2)nc1-c1ccccc1", "observed value": "4.24 µM"}
{"compound": "CCCc1sc(N/N=C/c2ccccn2)nc1-c1ccc(F)cc1", "observed value": "2.27 µM"}

----------
The molecules listed here are annotated with their AC50.
# System: INS-1E rat beta cells, no cytokines, CellTiter-Glo ATP, 48 h
# protocol details: cytokine-free beta-cell viability effect – INS-1E rat cells, ATP luminescence, cherry pick, counter-screen for beta-cell apoptosis protection project, dose response (AID 463229)

{"molecule": "COc1ccc(CCNc2ccc(C(CC(N)=O)NC(=O)c3ccc(Br)cc3)cc2[N+](=O)[O-])cc1 (configuration not stated)", "AC50": "16.8 µM"}
{"molecule": "Cc1cc(/C=N/n2cnnc2)c(C)n1-c1ccc(OCc2ccc(Cl)cc2Cl)cc1", "AC50": "1.71 µM"}
{"molecule": "O=C(NCCc1ccccc1)[C@@H]1CC=C[C@@H]2CCN(Cc3ccc(Cl)c(Cl)c3)C(=O)[C@@H]21", "AC50": "13.2 µM"}
{"molecule": "CCCCCCCCCCOC(=O)Cn1c(COc2cccc(C)c2)[n+](C)c2ccccc21", "AC50": "4.71 µM"}
{"molecule": "O=[N+]([O-])c1ccccc1-c1cc(-c2ccccc2)cc(-c2ccccc2)[n+]1Cc1ccccc1Cl", "AC50": "2.23 µM"}
{"molecule": "CCCNC(=O)c1ccc2c(=O)c(O)c(-c3ccc(Cl)c([N+](=O)[O-])c3)[nH]c2c1", "AC50": "10.8 µM"}
{"molecule": "O=C(c1ccc(-c2ccc(Cl)cc2)o1)N1CCN(c2ccc([N+](=O)[O-])cc2Cl)CC1", "AC50": "4.92 µM"}
{"molecule": "CC1CN(CC(O)COC(c2ccc(Cl)cc2)c2ccc(Cl)cc2)CC(C)O1 (configuration not stated)", "AC50": "14.2 µM"}
{"molecule": "COC(=O)[C@H](CC(C)C)N(Cc1ccccc1)S(=O)(=O)N(Cc1ccccc1)[C@@H](CC(C)C)C(=O)OC", "AC50": "15.5 µM"}
{"molecule": "CCCCCCSc1cccc(-c2nc3ccccn3c2NCc2ccccc2)c1", "AC50": "6.25 µM"}
{"molecule": "COc1ccc(N(C(=O)CCl)C(C(=O)NCCc2ccccc2)c2cccs2)cc1Cl (configuration not stated)", "AC50": "7.56 µM"}
{"molecule": "CN(C)CCNC(=O)/C(=C/c1ccc(-c2ccc(Cl)cc2Cl)o1)NC(=O)c1ccccc1", "AC50": "9.44 µM"}
{"molecule": "CCCC(=O)NC(c1ccc(Cl)cc1)c1ccc2cccnc2c1O (configuration not stated)", "AC50": "2.08 µM"}
{"molecule": "COc1ccc(-c2nc(-c3ccccn3)no2)cc1", "AC50": "3.11 µM"}
{"molecule": "CC(C)c1ccc(COc2ccc(C(=O)N3CCOCC3)cc2)cc1", "AC50": "12.9 µM"}
{"molecule": "O=C(NC(=S)NNC(=O)c1cnccn1)c1ccc(F)cc1", "AC50": "3.48 µM"}
{"molecule": "O=C(Nc1nc2ccc([N+](=O)[O-])cc2s1)c1ccc(S(=O)(=O)N2CCCc3ccccc32)cc1", "AC50": "2.63 µM"}
{"molecule": "CCC(=O)NC(c1cccs1)c1cc(Cl)c2cccnc2c1O (configuration not stated)", "AC50": "5.49 µM"}
{"molecule": "Cc1oc2c(c1C(=O)N1CCC(C)CC1)C(=O)c1ccccc1C2=O", "AC50": "10.8 µM"}
{"molecule": "Cc1nc2ccccc2c2oc(C(=O)Nc3ccc(C(C)C)cc3)cc12", "AC50": "21.6 µM"}
{"molecule": "Cc1ccc(C(=O)c2c(C)oc3c2C(=O)C(=O)c2ccccc2-3)cc1", "AC50": "2.92 µM"}
{"molecule": "CC(=O)N(C)C1=C(N2CCOCC2)C(=O)c2ccccc2C1=O", "AC50": "7.91 µM"}
